This collection of values is drawn from the M2OR odorant receptor database.

# ASSAYED_TARGET: OR5K1 (Homo sapiens)
# Sequence (whole entry): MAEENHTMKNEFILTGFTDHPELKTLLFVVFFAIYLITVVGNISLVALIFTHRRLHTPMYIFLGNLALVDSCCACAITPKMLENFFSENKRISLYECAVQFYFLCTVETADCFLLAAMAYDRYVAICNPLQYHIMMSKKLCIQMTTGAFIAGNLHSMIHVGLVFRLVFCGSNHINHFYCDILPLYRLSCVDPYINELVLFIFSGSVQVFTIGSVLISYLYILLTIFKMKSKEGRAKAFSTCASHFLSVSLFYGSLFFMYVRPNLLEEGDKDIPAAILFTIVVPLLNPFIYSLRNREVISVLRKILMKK
# STATED_CONDITIONS: stereoisomer not certain
Classes used: active, inactive

{"COMPOUND": "C=CC(=O)CC", "DISCRETE_LABEL": "inactive"}
{"COMPOUND": "CCCC(O)CC(=O)OCC (stereo not drawn)", "DISCRETE_LABEL": "inactive"}
{"COMPOUND": "CC=Cc1ccc(OC)cc1", "DISCRETE_LABEL": "inactive"}
{"COMPOUND": "CCOC(=O)C(C)CC (stereo not drawn)", "DISCRETE_LABEL": "inactive"}
{"COMPOUND": "CC1=CCC2CC1C2(C)C (stereo not drawn)", "DISCRETE_LABEL": "inactive"}
{"COMPOUND": "Cc1cccc(O)c1", "DISCRETE_LABEL": "inactive"}
{"COMPOUND": "CC(=O)OCC=Cc1ccccc1", "DISCRETE_LABEL": "inactive"}
{"COMPOUND": "OCCc1ccccc1", "DISCRETE_LABEL": "inactive"}
{"COMPOUND": "CCC(S)C(C)=O (stereo not drawn)", "DISCRETE_LABEL": "inactive"}
{"COMPOUND": "CCCCCCCCCC(=O)OCC", "DISCRETE_LABEL": "inactive"}
{"COMPOUND": "CC(=O)OCCc1ccccc1", "DISCRETE_LABEL": "inactive"}
{"COMPOUND": "CCCC(=O)OCC", "DISCRETE_LABEL": "inactive"}
{"COMPOUND": "COc1cccc(OC)c1O", "DISCRETE_LABEL": "inactive"}
{"COMPOUND": "CCCCC(CC)CCC(=O)O (stereo not drawn)", "DISCRETE_LABEL": "inactive"}
{"COMPOUND": "COc1ccc(C)cc1O", "DISCRETE_LABEL": "inactive"}
{"COMPOUND": "CCC(C)CO (stereo not drawn)", "DISCRETE_LABEL": "inactive"}
{"COMPOUND": "COCCC(C)(C)S", "DISCRETE_LABEL": "inactive"}
{"COMPOUND": "CC(=O)C1=NCCS1", "DISCRETE_LABEL": "inactive"}
{"COMPOUND": "CCC1OC(=O)C(O)=C1C (stereo not drawn)", "DISCRETE_LABEL": "inactive"}
{"COMPOUND": "CCC(C)C=O (stereo not drawn)", "DISCRETE_LABEL": "inactive"}
{"COMPOUND": "CCCCC1CCC(=O)O1 (stereo not drawn)", "DISCRETE_LABEL": "inactive"}
{"COMPOUND": "CC1CCc2nccnc21 (stereo not drawn)", "DISCRETE_LABEL": "active"}
{"COMPOUND": "CCC=O", "DISCRETE_LABEL": "inactive"}
{"COMPOUND": "CC(=O)c1ccc(C)cc1", "DISCRETE_LABEL": "inactive"}
{"COMPOUND": "CCOC(=O)C(C)C", "DISCRETE_LABEL": "inactive"}
{"COMPOUND": "CC(C)CC=O", "DISCRETE_LABEL": "inactive"}
{"COMPOUND": "CCCSSSCCC", "DISCRETE_LABEL": "inactive"}
{"COMPOUND": "CCCc1ccc(O)c(OC)c1", "DISCRETE_LABEL": "inactive"}
